target: human β3 adrenergic receptor (Homo sapiens); construct: Full length β3 AR clones (402 amino acids) containing the last 6 amino acids of hβ3— AR are prepared; expressed in transfected cells; host or cells: CHO cells; assay: cAMP accumulation (SPA) in CHO cells transfected with human β3 adrenergic receptor; type: cell-based; settings: IA = % activity compound / % activity isoproterenol at 10^−5 M; CHO human β3 cells
observation-type: beta-3 (IA) maximal response relative to isoproterenol

Past entries and their recorded results:
COC(=O)N(CC(=O)O)S(=O)(=O)c1ccc(N2CCC(NC[C@H](O)c3ccc(O)c(NS(C)(=O)=O)c3)CC2)cc1 on human β3 adrenergic receptor (Homo sapiens) gives beta-3 (IA) maximal response relative to isoproterenol = (1.1)

CC(C)(C)OC(=O)CN(CC(=O)OC(C)(C)C)S(=O)(=O)c1ccc(N2CCC(NC[C@H](O)c3ccc(O)c(NS(C)(=O)=O)c3)CC2)cc1 on human β3 adrenergic receptor (Homo sapiens) gives beta-3 (IA) maximal response relative to isoproterenol = (1.2)

CS(=O)(=O)Nc1cc([C@@H](O)CNC2CCN(c3ccc(S(=O)(=O)N(CC(=O)O)CC4CC4)cc3)CC2)ccc1O on human β3 adrenergic receptor (Homo sapiens) gives beta-3 (IA) maximal response relative to isoproterenol = (1.2)

COc1ccc(NS(=O)(=O)c2ccc(N3CCC(NC[C@H](O)COc4cccc5[nH]c(=O)[nH]c45)CC3)cc2)cc1OC on human β3 adrenergic receptor (Homo sapiens) gives beta-3 (IA) maximal response relative to isoproterenol = (0.8)

CCCCNS(=O)(=O)c1ccc(N2CCC(NC[C@H](O)c3ccc(O)c(NS(C)(=O)=O)c3)CC2)cc1 on human β3 adrenergic receptor (Homo sapiens) gives beta-3 (IA) maximal response relative to isoproterenol = (1.3)

Give measured beta-3 (IA) maximal response relative to isoproterenol for every item shown.
1. CC(C)NS(=O)(=O)c1ccc(N2CCC(NC[C@H](O)c3ccc(O)c(NS(C)(=O)=O)c3)CC2)cc1
2. CCOC(=O)CN1CCN(S(=O)(=O)c2ccc(N3CCC(NC[C@H](O)c4ccc(O)c(NS(C)(=O)=O)c4)CC3)cc2)CC1
3. CS(=O)(=O)Nc1cc([C@@H](O)CNC2CCN(c3ccc(S(=O)(=O)N4CCCC4)cc3)CC2)ccc1O
4. CN(CC(=O)O)S(=O)(=O)c1ccc(N2CCC(NC[C@H](O)c3ccc(O)c(NS(C)(=O)=O)c3)CC2)cc1

1. (1.3)
2. (1.1)
3. (1)
4. (1)

CCCCNS(=O)(=O)c1ccc(N2CCC(NC[C@H](O)COc3cccc4[nH]c(=O)[nH]c34)CC2)cc1 on human β3 adrenergic receptor (Homo sapiens) gives beta-3 (IA) maximal response relative to isoproterenol = (1)

###

Exercise: state measured melting point for each of the molecules provided.

// sample COc1ccc(NS(=O)(=O)c2ccc(N3CCC(NC[C@H](O)COc4cccc5[nH]c6ccccc6c45)CC3)cc2)cc1OC , its melting point was 58 to 64 °C

// sample CCOC(=O)CNS(=O)(=O)c1ccc(N2CCC(NC[C@H](O)c3ccc(O)c(NS(C)(=O)=O)c3)CC2)cc1 , its melting point was 105 to 107 °C

// sample CC#CCC(CC#CC)(C(=O)O)S(=O)(=O)c1ccc(N2CCC(NC[C@H](O)c3ccc(O)c(NS(C)(=O)=O)c3)CC2)cc1 , its melting point was 175 to 177 °C

Give measured melting point for every item shown.
1. CCOC(=O)CN(Cc1cc(F)ccc1F)S(=O)(=O)c1ccc(N2CCC(NC[C@H](O)c3ccc(O)c(NS(C)(=O)=O)c3)CC2)cc1
2. COc1ccc(NS(=O)(=O)c2ccc(N3CCC(NC[C@H](O)COc4ccc(OCc5ccccc5)cc4)CC3)cc2)cc1OC
3. CC(C)OC(=O)C1CCCN1S(=O)(=O)c1ccc(N2CCC(NCC(O)COc3cccc4[nH]c(=O)[nH]c34)CC2)cc1 (stereo not drawn)

1. 85 to 90 °C
2. 113 to 121 °C
3. 74 to 83 °C

###

molecular target: human β2-adrenergic receptor (Homo sapiens, UniProt P07550); construct: expressed in transfected cells; host or cells: CHO cells; experiment: cAMP accumulation (SPA) in CHO cells transfected with human β2 adrenergic receptor; type: cell-based; conditions: CHO cells transfected with human β2-AR; cAMP; 15 min incubation; 10^−8 to 10^−4 M; read-out: beta-2 EC50
Sequence (P07550 whole entry): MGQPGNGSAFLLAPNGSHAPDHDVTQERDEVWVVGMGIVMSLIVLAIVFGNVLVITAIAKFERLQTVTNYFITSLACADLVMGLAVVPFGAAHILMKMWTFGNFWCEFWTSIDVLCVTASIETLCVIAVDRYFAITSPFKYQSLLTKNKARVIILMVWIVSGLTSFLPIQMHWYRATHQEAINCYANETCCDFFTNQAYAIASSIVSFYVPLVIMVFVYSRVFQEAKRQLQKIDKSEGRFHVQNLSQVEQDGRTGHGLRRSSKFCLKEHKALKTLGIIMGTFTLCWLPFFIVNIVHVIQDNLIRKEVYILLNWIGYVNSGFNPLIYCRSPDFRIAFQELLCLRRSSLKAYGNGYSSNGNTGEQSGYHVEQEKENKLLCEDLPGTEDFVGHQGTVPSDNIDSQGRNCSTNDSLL
Exercise: state measured EC50 for each of the compounds provided.
Give bare numbers, in µM.

COC(=O)N(CC(=O)O)S(=O)(=O)c1ccc(N2CCC(NC[C@H](O)c3ccc(O)c(NS(C)(=O)=O)c3)CC2)cc1 on human β2-adrenergic receptor (Homo sapiens, UniProt P07550) gives EC50 = 10

Cc1ccc(S(=O)(=O)c2ccc(N3CCC(NCC(O)c4ccc(O)c(NS(C)(=O)=O)c4)CC3)cc2)cc1 (stereo not shown) on human β2-adrenergic receptor (Homo sapiens, UniProt P07550) gives EC50 = 0.7

Give measured EC50 for every item shown.
1. COC(=O)N(CC(=O)OC(C)(C)C)S(=O)(=O)c1ccc(N2CCC(NC[C@H](O)c3ccc(O)c(NS(C)(=O)=O)c3)CC2)cc1
2. CCOC(=O)CN(C)S(=O)(=O)c1ccc(N2CCC(NC[C@H](O)c3ccc(O)c(NS(C)(=O)=O)c3)CC2)cc1

12
1.43

###

molecular target: UniProt:P07550; test: cAMP accumulation (SPA) in CHO cells transfected with human β2 adrenergic receptor; settings: CHO cells transfected with human β2-AR; cAMP; 15 min incubation; 10^−8 to 10^−4 M; read-out: beta-2 EC50
observation-type: EC50 (nM)
Numbers only, in nM.

Past entries and their recorded results:
// sample CC(C)NS(=O)(=O)c1ccc(N2CCC(NC[C@H](O)c3ccc(O)c(NS(C)(=O)=O)c3)CC2)cc1 , its EC50 was 2900

// sample CCOC(=O)[C@@H](NS(=O)(=O)c1ccc(N2CCC(NC[C@H](O)c3ccc(O)c(NS(C)(=O)=O)c3)CC2)cc1)C(C)C , its EC50 was 380

// sample CS(=O)(=O)Nc1cc([C@@H](O)CNC2CCN(c3ccc(S(=O)(=O)N4CCC[C@@H]4C(=O)OCc4ccccc4)cc3)CC2)ccc1O , its EC50 was 640

---
// sample CS(=O)(=O)Nc1cc([C@@H](O)CNC2CCN(c3ccc(S(=O)(=O)N4CCCCC4)cc3)CC2)ccc1O , its EC50 was 370

###

molecular target: human β3 adrenergic receptor (Homo sapiens, UniProt P13945); construct: Full length β3 AR clones (402 amino acids) containing the last 6 amino acids of hβ3— AR are prepared; expressed in transfected cells; host or cells: CHO cells; experiment: cAMP accumulation (SPA) in CHO cells transfected with human β3 adrenergic receptor; type: cell-based; conditions: IA = % activity compound / % activity isoproterenol at 10^−5 M; CHO human β3 cells
Sequence (P13945 whole entry): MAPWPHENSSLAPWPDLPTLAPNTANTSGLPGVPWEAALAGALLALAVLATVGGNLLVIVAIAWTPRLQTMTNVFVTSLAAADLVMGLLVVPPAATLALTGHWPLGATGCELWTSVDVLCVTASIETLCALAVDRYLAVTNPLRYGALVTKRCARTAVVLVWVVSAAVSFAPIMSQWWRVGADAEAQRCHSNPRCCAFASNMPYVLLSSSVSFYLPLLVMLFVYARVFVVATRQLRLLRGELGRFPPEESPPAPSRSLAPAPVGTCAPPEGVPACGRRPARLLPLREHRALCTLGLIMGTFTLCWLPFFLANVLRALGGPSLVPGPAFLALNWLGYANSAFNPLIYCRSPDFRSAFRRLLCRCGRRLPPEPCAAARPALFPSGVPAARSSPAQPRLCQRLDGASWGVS
observation-type: beta-3 (IA) maximal response relative to isoproterenol

Past entries and their recorded results:
// sample CCOC(=O)[C@@H](NS(=O)(=O)c1ccc(N2CCC(NC[C@H](O)c3ccc(O)c(NS(C)(=O)=O)c3)CC2)cc1)C(C)C [Example 38] , its beta-3 (IA) maximal response relative to isoproterenol was (1.1)

// sample Cc1ccc(S(=O)(=O)c2ccc(N3CCC(NCC(O)c4ccc(O)c(NS(C)(=O)=O)c4)CC3)cc2)cc1 (stereo not shown) [Example 45] , its beta-3 (IA) maximal response relative to isoproterenol was (1)

// sample CCOC(=O)NC(=O)CNS(=O)(=O)c1ccc(N2CCC(NC[C@H](O)c3ccc(O)c(NS(C)(=O)=O)c3)CC2)cc1 [Example 58] , its beta-3 (IA) maximal response relative to isoproterenol was (1)

// sample CS(=O)(=O)Nc1cc([C@@H](O)CNC2CCN(c3ccc(S(=O)(=O)NCC(=O)O)cc3)CC2)ccc1O [Example 53] , its beta-3 (IA) maximal response relative to isoproterenol was (1.2)

Give measured beta-3 (IA) maximal response relative to isoproterenol for every item shown.
1. CCCCN(CC(=O)OCc1ccccc1)S(=O)(=O)c1ccc(N2CCC(NC[C@H](O)c3ccc(O)c(NS(C)(=O)=O)c3)CC2)cc1 [Example 19]
2. CS(=O)(=O)Nc1cc([C@@H](O)CNC2CCN(c3ccc(S(=O)(=O)N4CCC[C@H]4C(=O)O)cc3)CC2)ccc1O [Example 39]
3. CCOC(=O)CN(Cc1cc(F)ccc1F)S(=O)(=O)c1ccc(N2CCC(NC[C@H](O)c3ccc(O)c(NS(C)(=O)=O)c3)CC2)cc1 [Example 61]
4. CC(C)CN(CC(=O)O)S(=O)(=O)c1ccc(N2CCC(NC[C@H](O)c3ccc(O)c(NS(C)(=O)=O)c3)CC2)cc1 [Example 34]

1: (1); 2: (1); 3: (1.1); 4: (1.1)

###

Structures can show the parent of a compound that is named as a salt.
Exercise: state measured melting point for each of the compounds provided.

Past entries and their recorded results:
// sample CC(C)(C)OC(=O)CNS(=O)(=O)c1ccc(N2CCC(NC[C@H](O)c3ccc(O)c(NS(C)(=O)=O)c3)CC2)cc1 [Example 52] , its melting point was 113 to 115 °C

// sample CCCCNS(=O)(=O)c1ccc(N2CCC(NC[C@H](O)COc3cccc4[nH]c(=O)[nH]c34)CC2)cc1 [Example 12] , its melting point was 69 to 75 °C

// sample CS(=O)(=O)Nc1cc([C@@H](O)CNC2CCN(c3ccc(S(=O)(=O)N4CCC[C@H]4C(=O)OCc4ccccc4)cc3)CC2)ccc1O [Example 22] , its melting point was 65 to 71 °C

// sample CS(=O)(=O)Nc1cc([C@@H](O)CNC2CCN(c3ccc(S(=O)(=O)N(CC(=O)O)CC(=O)O)cc3)CC2)ccc1O (as salt: salt) [Example 55] , its melting point was 163 to 166 °C

Give measured melting point for every item shown.
1. CS(=O)(=O)Nc1cc([C@@H](O)CNC2CCN(c3ccc(S(=O)(=O)NCC(=O)O)cc3)CC2)ccc1O (as salt: salt) [Example 53]
2. CCCCN(CC(=O)OCc1ccccc1)S(=O)(=O)c1ccc(N2CCC(NC[C@H](O)c3ccc(O)c(NS(C)(=O)=O)c3)CC2)cc1 [Example 19]
3. CN1CCN(S(=O)(=O)c2ccc(N3CCC(NC[C@H](O)c4ccc(O)c(NS(C)(=O)=O)c4)CC3)cc2)CC1 [Example 66]
4. COc1ccc(NS(=O)(=O)c2ccc(N3CCC(NCC(O)c4ccc(O)c(NS(C)(=O)=O)c4)CC3)cc2)cc1OC (stereo not shown) [Example 8]
5. O=C1CN(S(=O)(=O)c2ccc(N3CCC(NC[C@H](O)COc4cccc5[nH]c(=O)[nH]c45)CC3)cc2)C(=O)N1 [Example 49]
6. CCOC(=O)NC(=O)CNS(=O)(=O)c1ccc(N2CCC(NC[C@H](O)c3ccc(O)c(NS(C)(=O)=O)c3)CC2)cc1 [Example 58]
7. COC(=O)N(CC(=O)O)S(=O)(=O)c1ccc(N2CCC(NC[C@H](O)c3ccc(O)c(NS(C)(=O)=O)c3)CC2)cc1 (as salt: salt) [Example 60]
8. CCCCNC(=O)NS(=O)(=O)c1ccc(N2CCC(NC[C@H](O)c3ccc(O)c(NS(C)(=O)=O)c3)CC2)cc1 [Example 62]

1. 170 to 172 °C
2. 59 to 64 °C
3. 89 to 91 °C
4. 205 to 218 °C
5. 230 °C (dec.)
6. 98 to 105 °C
7. 60 °C
8. 100 to 102 °C

// sample CCCCNS(=O)(=O)c1ccc(N2CCC(NC[C@H](O)COc3cccc4[nH]c5ccccc5c34)CC2)cc1 [Example 13] , its melting point was 166 to 179 °C

Source of measurements: patent US6444685B1
